Target: recombinant human LTA4 hydrolase (rhLTA4H) (Homo sapiens, UniProt P09960)
Construct: made in house; host or cells: Spodoptera frugiperda (Sf-9) cells, recombinant baculovirus (pFastBac1)
Sequence (P09960 whole entry): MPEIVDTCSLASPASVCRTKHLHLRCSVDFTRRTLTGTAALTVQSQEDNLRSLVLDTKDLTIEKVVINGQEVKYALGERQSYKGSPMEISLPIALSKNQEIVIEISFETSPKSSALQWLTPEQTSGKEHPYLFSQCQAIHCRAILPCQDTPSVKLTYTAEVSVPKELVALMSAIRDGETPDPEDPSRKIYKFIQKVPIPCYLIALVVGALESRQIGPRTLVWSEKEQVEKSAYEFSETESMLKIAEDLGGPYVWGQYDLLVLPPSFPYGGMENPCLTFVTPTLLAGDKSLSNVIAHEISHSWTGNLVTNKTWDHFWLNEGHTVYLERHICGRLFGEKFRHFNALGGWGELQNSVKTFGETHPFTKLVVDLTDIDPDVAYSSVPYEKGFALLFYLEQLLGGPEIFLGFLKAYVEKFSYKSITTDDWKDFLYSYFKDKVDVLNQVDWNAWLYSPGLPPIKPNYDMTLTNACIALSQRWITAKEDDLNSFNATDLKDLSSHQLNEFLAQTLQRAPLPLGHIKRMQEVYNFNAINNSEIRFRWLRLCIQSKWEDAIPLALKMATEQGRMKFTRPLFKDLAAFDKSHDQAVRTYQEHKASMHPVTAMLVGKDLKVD
Assay: Recombinant human LTA4 hydrolase assay for LTA4 hydrolase inhibitor activity
Format: biochemical
Conditions: rhLTA4H, LTA4 substrate, LTB4 by immunoassay; single determination or average; read-out: IC50
reported metric: IC50 (nM)
// note: answer is a bare numeric in nM

1. NC(=O)N[C@@H]1C[C@H]2CC[C@@H](C1)N2Cc1ccc(Oc2nc3ncccc3s2)cc1	1

*Q* Please supply the value of reported IC50 for the item NC(=O)N[C@H]1C[C@H]2CC[C@@H](C1)N2Cc1ccc(Oc2nc3ncccc3s2)cc1
*A* 2

*Q* Provide IC50 value for the following molecule: c1ccc(C2CCN(CCOc3ccc(Oc4nc5cccnc5s4)cc3)CC2)nc1
*A* 61

---

System: ex vivo stimulated LTB4 production
Assay: Murine arachidonic acid-induced inflammation model: ex vivo stimulated LTB4 production (% Inh. LTB4)
Details: Mus musculus; female Balb/c mice, 30 mg/kg oral gavage; blood taken 3 h after arachidonic acid, ex vivo A23187 stimulation; number of determinations in parentheses
reported metric: inhibition at 30 mg/kg (%)
Kindly answer with a numeric value in %, unit omitted.

1. NC(=O)C1CCN(Cc2ccc(Oc3nc4ncc(F)cc4s3)cc2)CC1	78.2
2. CN(C)CCC1CCCCN1Cc1ccc(Oc2nc3ncccc3s2)cc1 (stereo not shown)	75
3. CCN(CC)Cc1ccc(Oc2nc3ncccc3s2)cc1	56.8
4. c1cnc2nc(Oc3ccc(CN4CCCC4)cc3)sc2c1	53.9
5. CC(=O)N[C@H]1C[C@H]2CC[C@@H](C1)N2CCOc1ccc(Oc2nc3ncccc3s2)cc1	84.6

*Q* Query inhibition at 30 mg/kg for OC[C@@H]1CCCN1Cc1ccc(Oc2nc3ncccc3s2)cc1
*A* 79.8

*Q* Indicate its recorded inhibition at 30 mg/kg; the compound in question is O=C1CCCN1C1CCN(CCOc2ccc(Oc3nc4ncccc4s3)cc2)CC1
*A* 89

*Q* // Input: c1cnc2nc(Oc3ccc(CCN4CCOCC4)cc3)sc2c1 . Output its inhibition at 30 mg/kg only.
*A* 92.7

*Q* Return value of inhibition at 30 mg/kg for input CC(=O)N1CC2CN(CCOc3ccc(Oc4nc5ncccc5s4)cc3)CC2C1 (stereo not shown) , no commentary.
*A* 80.9

*Q* Return value of inhibition at 30 mg/kg for input CC(=O)N1C[C@@H]2C[C@H]1CN2Cc1ccc(Oc2nc3ncc(C)cc3s2)cc1 , no commentary.
*A* 83

---

Molecular target: recombinant human LTA4 hydrolase (rhLTA4H) (Homo sapiens, UniProt P09960)
Construct: made in house; host or cells: Spodoptera frugiperda (Sf-9) cells, recombinant baculovirus (pFastBac1)
Assay: Recombinant human LTA4 hydrolase assay for LTA4 hydrolase inhibitor activity
Format: biochemical
Settings: rhLTA4H, LTA4 substrate, LTB4 by immunoassay; single determination or average; read-out: IC50
# IC50 annotations
Give the number; nM is assumed, so skip it.

*Q* Fill in IC50 for record CS(=O)(=O)N[C@H]1C[C@H]2CC[C@@H](C1)N2Cc1ccc(Oc2nc3ncccc3s2)cc1
*A* 1.9

*Q* Give IC50 for the following compound: CC(=O)N[C@H]1C[C@H]2CC[C@@H](C1)N2CCOc1ccc(Oc2nc3nccnc3s2)cc1
*A* 43

*Q* Please report IC50 for the following compound: OC1(c2ccccn2)CCN(Cc2ccc(Oc3nc4ncccc4s3)cc2)CC1
*A* 11
